Data origin: patent US5510379A

System: male Sprague-Dawley rats
measurement notes: in vivo screen APCC in cholesterol-fed rats
measurement setup: Rattus norvegicus, po, 30 mg/kg by gavage, high fat, high cholesterol diet overnight, versus vehicle and diet only, read-out: APCC percent change in total cholesterol (%TC) from control animals
Below is a list of entries, each paired with its recorded change in vivo at 30 mg/kg value.
Please respond with the number in % and leave the unit unwritten.

compound="CC(C)c1cc(C(C)C)c(OS(=O)(=O)CC(=O)N(Cc2ccccc2)Cc2ccccc2)c(C(C)C)c1 [Example 1]" output_unit=% numeric_result=-7
compound="CC(C)c1cccc(C(C)C)c1OS(=O)(=O)CC(=O)NC(c1ccccc1)c1ccccc1 [Example 4]" output_unit=% numeric_result=-43

[ask] Data request, read-out change in vivo at 30 mg/kg, for CC(C)c1cc(C(C)C)c(OS(=O)(=O)CC(=O)Nc2c(C(C)C)cccc2C(C)C)c(C(C)C)c1 [Example 9]
[reply] -61

[ask] Data request, read-out change in vivo at 30 mg/kg, for CSc1ccc(CN(C(=O)CS(=O)(=O)Oc2c(C(C)C)cc(C(C)C)cc2C(C)C)C(C)C)cc1 [Example 7]
[reply] -17

[ask] Data request, read-out change in vivo at 30 mg/kg, for CC(C)c1cccc(C(C)C)c1OS(=O)(=O)CC(=O)O [Example 5]
[reply] -31

====

Tested on: male Sprague-Dawley rats
measurement notes: in vivo screen APCC in cholesterol-fed rats
measurement setup: Rattus norvegicus, po, 30 mg/kg by gavage, high fat, high cholesterol diet overnight, versus vehicle and diet only, read-out: APCC percent change in total cholesterol (%TC) from control animals
endpoint: change in vivo at 30 mg/kg

// below: answered molecules
chemical_smiles=CC(C)c1cccc(C(C)C)c1NC(=O)CS(=O)(=O)Oc1c(C(C)C)cccc1C(C)C endpoint="change in vivo at 30 mg/kg" result=-42%
chemical_smiles=CC(C)c1cccc(C(C)C)c1OC(=O)CS(=O)(=O)Oc1c(C(C)C)cccc1C(C)C endpoint="change in vivo at 30 mg/kg" result=-21%
chemical_smiles=CC(C)c1cc(C(C)C)c(NC(=O)CS(=O)(=O)Oc2c(C(C)C)cccc2C(C)C)c(C(C)C)c1 endpoint="change in vivo at 30 mg/kg" result=-31%

[ask] Data request, read-out change in vivo at 30 mg/kg, for "CCCCCCCCCCCCNC(=O)CS(=O)(=O)Oc1c(C(C)C)cccc1C(C)C"
[reply] -3%

[ask] Data request, read-out change in vivo at 30 mg/kg, for "CC(C)c1cc(C(C)C)c(OS(=O)(=O)CC(=O)NC(c2ccccc2)c2ccccc2)c(C(C)C)c1"
[reply] -19%
